System: MS2 coat protein
Experiment: apparent KD of MS2 coat protein; higher = weaker reporter binding
Settings: Eterna round: R107; input ligand: none
ASSAY ENDPOINT: apparent KD of MS2 coat protein (nM)

{"SEQUENCE CHAIN": "CCCUGGGUGGGAAGGAGCGCAUAGUGAACAUGAGGAUCACCCAUGUGCAGACGUGAGUCAUUGCAGGUAGGUCGCCCACCCAGGG [SS-ArgB22]", "ASSAY ENDPOINT": "apparent KD of MS2 coat protein", "MEASURED VALUE": 18.9}
{"SEQUENCE CHAIN": "UGUAUGGACUGAAGGAGCGCCUCAAAAUAACAUGAGGAUCACCCAUGUAAGGCGAAAGCCGGGCAGGUAGGUCGCAGUCCAUACU [ArgBX 3 #StaticStem #MS2Late]", "ASSAY ENDPOINT": "apparent KD of MS2 coat protein", "MEASURED VALUE": 11.2}
{"SEQUENCE CHAIN": "AGCUCGCGAAAGCGAGCAACAUGAUCCGAAGGAGCGCGCGAAAGCGCAGGUAGGUCGCGGACAUGAGGAUCACCCAUGUCUCCUU [MAT - Exclusion Arginine A - Mod of Eli - D14]", "ASSAY ENDPOINT": "apparent KD of MS2 coat protein", "MEASURED VALUE": 66.2}
{"SEQUENCE CHAIN": "UGGUCCGUCGGAAGGAGCGACAUGAGGAUCACCCAUGUCUCCCGUUAUGGGAGUUCUUUAGGUCAGGUAGGUCGCCGGCGGGUCA [#1 Exclusion - Arginine B Attempt #12 (Inspired by Omei)]", "ASSAY ENDPOINT": "apparent KD of MS2 coat protein", "MEASURED VALUE": 111}
{"SEQUENCE CHAIN": "GGACUAACUGGAAGGAGCGACACGCAGAAACUGCAAUUUCCUCCACACGAGGAUCACCCGUGUCAGGUAGGUCGCCAGUUAGUCG [ArgBX 29]", "ASSAY ENDPOINT": "apparent KD of MS2 coat protein", "MEASURED VALUE": 39.1}
{"SEQUENCE CHAIN": "ACAAGAGGGAUGGAUACCAGCGACAUGAGGAUCACCCAUGUAUGAGGAUCAGCCAUGUUAUGCCCUUGGCAGCCACGAAGAUCAG [XXXMULLIN]", "ASSAY ENDPOINT": "apparent KD of MS2 coat protein", "MEASURED VALUE": 25.1}

----------
Test system: MS2 coat protein
Experiment: apparent KD of MS2 coat protein; designed switch direction (-1 OFF switch, 1 ON switch): 1; higher = weaker reporter binding
Conditions: input ligand: none
Cut-off 300 nM on apparent KD of MS2 coat protein, inclusive. At or above means yes (1); below means no (0).

{"SEQUENCE CHAIN": "UCAGUCAUGUAAGGAUAUGCAGCCGAAACGGCUGCAGAAGGUACUAUAAUUACAUGAGGAUCACCCAUGUUAUAAAAUUUAUAU [Mat - Same State NG 1 - JL mod - D64] (Eterna round: R96, puzzle: Same State NG 1)", "GROUP LABEL": "no (0)"}
{"SEQUENCE CHAIN": "AUUAAACAUGAGGAUCACCCAUGUCAACAAAGUCGAGGAUAUGGGCAAAUAAAAUAUGAACCAGAAGGCGAAUAAU [salish99_ss1_r3_064] (Eterna round: R96, puzzle: Same State 1)", "GROUP LABEL": "no (0)"}
{"SEQUENCE CHAIN": "AACAGUCGACGAGGAUAUGGACGGACAGGUUUGCCUGUGCGGCUCACAUGAGGAUCACCCAUGUUCUAGAAGGCGUCACUGUGA [Matidia] (Eterna round: R96, puzzle: Same State NG 2)", "GROUP LABEL": "no (0)"}
{"SEQUENCE CHAIN": "AACCCAGUGGAAGGAUAUGGCACCUUAUUGGUGCCAGAAGGUCCUAACAUGAGGAUCACCCAUGUGGGCCGGUCGAAAGACCGG [Fiskers NG1ss - 10] (Eterna round: R96, puzzle: Same State NG 1)", "GROUP LABEL": "yes (1)"}
{"SEQUENCE CHAIN": "ACUAUUUAUGCAGGAUAUGAUUAACAUGAGGAUCACCCAUGUGGUGUUGUGAGUAAGGAGAGUGAUCAGAAGGGCAUUUUUUUU [JMF's solution 75] (Eterna round: R96, puzzle: Same State NG 2)", "GROUP LABEL": "yes (1)"}
{"SEQUENCE CHAIN": "AAGAAAGACGCAGGAUAUCAGUGCAGACCGCACUGAGAAGGGUGAGACAUGAGGAUCACCCAUGUAACACGACAAAACGUCGUG [Anritiat] (Eterna round: R96, puzzle: Same State NG 1)", "GROUP LABEL": "no (0)"}
